Value source: paper doi:10.1101/2021.10.07.463234v2

Biological target: SARS-CoV-2 Mac1 (Severe acute respiratory syndrome coronavirus 2, UniProt P0DTD1)
Experiment: biochemical
Conditions: read-out: %inhibition
Where a name gives a salt, the structure may show the parent alone.
Assay Metric: inhibition at 100 µM (%)
Numeric only. Scale: %

Field: example entries. Status: answers known.
Nc1ccc(S(=O)(=O)NC(=O)c2ccccc2)cc1 [Sulfabenzamide] = 0
Nc1ccn([C@@H]2CS[C@H](CO)O2)c(=O)n1 [Lamivudine] = 0
COC1=CC(=O)C[C@@H](C)[C@]12Oc1c(Cl)c(OC)cc(OC)c1C2=O [Griseofulvin] = 0

Using the record for CNC(=C[N+](=O)[O-])NCCSCc1csc(CN(C)C)n1 [Nizatidine] , report its inhibition at 100 µM.
46.1

Using the record for Cc1cc(N2CCN([C@@H]3CN[C@H](C(=O)N4CCSC4)C3)CC2)n(-c2ccccc2)n1 [Teneligliptin hydrobromide] , report its inhibition at 100 µM.
6.56

Using the record for Cc1cccc(Nc2ccccc2C(=O)O)c1C [Mefenamic Acid] , report its inhibition at 100 µM.
21

Using the record for Nc1cc(C(Cl)=C(Cl)Cl)c(S(N)(=O)=O)cc1S(N)(=O)=O [Clorsulon] , report its inhibition at 100 µM.
7.3

Using the record for N[C@@H]1CCCCN(c2c(F)cc3c(=O)c(C(=O)O)cn(C4CC4)c3c2Cl)C1 [Besifloxacin HCl] , report its inhibition at 100 µM.
0

###

Target: SARS-CoV-2 Mac1 (Severe acute respiratory syndrome coronavirus 2, UniProt P0DTD1)
Experiment: biochemical
Settings: read-out: %inhibition
Counter-ions that a name gives are not always drawn.
# inhibition at 100 µM per record follows
Numeric only. Scale: %

Field: example entries. Status: answers known.
NCCS [Cysteamine HCl] = 35.3
C/C(=C\c1csc(C)n1)[C@@H]1C[C@@H]2O[C@]2(C)CCC[C@H](C)[C@H](O)[C@@H](C)C(=O)C(C)(C)[C@@H](O)CC(=O)O1 [Patupilone (EPO906, Epothilone B)] = 19.2
CN(C)[C@@H]1C(O)=C(C(N)=O)C(=O)[C@@]2(O)C(O)=C3C(=O)c4c(O)ccc(Cl)c4[C@@](C)(O)[C@H]3C[C@@H]12 [Chlortetracycline HCl] = 1.82
Cc1c(-c2cnccn2)ssc1=S [Oltipraz] = 0
CCS(=O)(=O)CCn1c([N+](=O)[O-])cnc1C [Tinidazole] = 0
CC(C)(O/N=C(\C(=O)N[C@@H]1C(=O)N2C(C(=O)[O-])=C(C[n+]3ccccc3)CS[C@H]12)c1csc(N)n1)C(=O)O [Ceftazidime Pentahydrate] = 0

Using the record for O=C(O)c1cccnc1 [Nicotinic Acid] , report its inhibition at 100 µM.
28.8

Using the record for Cc1[nH]cnc1CN1CCc2c(c3ccccc3n2C)C1=O [Alosetron Hydrochloride] , report its inhibition at 100 µM.
16.8

Using the record for O=C1c2cccc3c2[C@H](CCC3)CN1[C@@H]1CN2CCC1CC2 [Palonosetron HCl] , report its inhibition at 100 µM.
0

Using the record for O=C(NC1CCN(CCCCC2(C(=O)NCC(F)(F)F)c3ccccc3-c3ccccc32)CC1)c1ccccc1-c1ccc(C(F)(F)F)cc1 [Lomitapide] , report its inhibition at 100 µM.
17.8

###

# %inhibition per record follows
Target: SARS-CoV-2 Mac1 (Severe acute respiratory syndrome coronavirus 2, UniProt P0DTD1)
Assay: biochemical
Settings: 100 µM; inhibitor
Where a name gives a salt, the structure may show the parent alone.
Numeric only. Scale: %

Field: example entries. Status: answers known.
Cc1cccc([C@H](C)c2c[nH]cn2)c1C [Dexmedetomidine HCl] = 0
COc1ccc(NC(=O)c2ccc(C(=N)N(C)C)cc2)c(C(=O)Nc2ccc(Cl)cn2)c1 [Betrixaban] = 0
CN(Cc1cnc2nc(N)nc(N)c2n1)c1ccc(C(=O)N[C@@H](CCC(=O)O)C(=O)O)cc1 [Methotrexate] = 59.68
C/C(=C\C(=O)OCCCCCCCCC(=O)O)C[C@@H]1OC[C@H](C[C@@H]2O[C@H]2[C@@H](C)[C@H](C)O)[C@@H](O)[C@H]1O [Mupirocin] = 0
CCCN[C@H]1CCc2nc(N)sc2C1 [Pramipexole dihydrochloride] = 10.17
CS(=O)(=O)CCNCc1ccc(-c2ccc3ncnc(Nc4ccc(OCc5cccc(F)c5)c(Cl)c4)c3c2)o1 [Lapatinib] = 0

Using the record for CC1(C)S[C@@H]2[C@H](NC(=O)[C@H](N)c3ccc(O)cc3)C(=O)N2[C@H]1C(=O)O [Amoxicillin trihydrate] , report its %inhibition.
5.69

Using the record for CCN(CC)CC(=O)Nc1c(C)cccc1C [Lidocaine] , report its %inhibition.
1.6

Using the record for CC(C)(C)c1nc(-c2cccc(NS(=O)(=O)c3c(F)cccc3F)c2F)c(-c2ccnc(N)n2)s1 [Dabrafenib (GSK2118436)] , report its %inhibition.
34.76
